Reference source: PubChem BioAssay

- Assayed Target: Voltage-gated potassium channel subunit beta-2 (Rattus norvegicus) (UniProt P62483)
- Sequence (P62483 whole entry, looked up): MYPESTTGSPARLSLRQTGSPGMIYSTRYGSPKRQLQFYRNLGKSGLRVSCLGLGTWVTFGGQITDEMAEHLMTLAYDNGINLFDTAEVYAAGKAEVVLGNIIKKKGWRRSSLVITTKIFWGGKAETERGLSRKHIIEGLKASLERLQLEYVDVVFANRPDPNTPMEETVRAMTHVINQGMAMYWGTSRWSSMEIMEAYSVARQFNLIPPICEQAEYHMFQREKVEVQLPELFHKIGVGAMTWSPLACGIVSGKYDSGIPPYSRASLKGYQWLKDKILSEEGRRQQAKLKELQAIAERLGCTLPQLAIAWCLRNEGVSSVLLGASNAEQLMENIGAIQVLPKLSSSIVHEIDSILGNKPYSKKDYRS
- Experiment Notes: enhancers of rat Kvbeta2 NADPH turnover – biochemical, NADPH fluorescence, primary screen (AID 623);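 also: fluorescence intensity change per second fitted from 20 to 320 s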
- Test Parameters: Recombinant KvBeta, NADPH fluorescence decrease slope, 10 min; at 10 µM; stronger effect = lower value
Examples of compounds with documented NADPH fluorescence slope follow.
Give a plain numeric answer without units written out.

Here's what some known entries look like.
• O=C(NCc1ccco1)C1Cc2ccccc2CN1S(=O)(=O)c1ccccc1F (stereo not given) = -1.7e-05
• Cc1ccccc1-c1nc(CN2CCC(C(=O)NCCCN3CCOCC3)CC2)c(C)o1 = 6.2e-05
• COCCn1c(N)c(C(=O)Nc2sc3c(c2C(=O)OC)CCCC3)c2nc3ccccc3nc21 = 4.8e-06

Turning now to a further record.
Assign NADPH fluorescence slope to the following record: O=C(CN1C(=O)C2CC=C(Cl)CC2C1=O)Nc1ccc(C(=O)O)cc1 (stereo not given)
-7.9e-05

====

- Experiment Notes: reduction of polyQ htt aggregates in cells – imaging, exon1htt(103Q)mCFP cells, high-content imaging, primary screen (AID 483);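 also: compound exposure lasted 3 days before fixation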
- Test Parameters: exon1htt(103Q)mCFP cell line, aggregate imaging, at 2 µM; stronger effect = higher value
Some compounds, each annotated with its measured inhibition of aggregation.
The reply should be a number in %, with the unit left off.

• C=C(C)CSc1nnc2[nH]c(=O)cc(N)n12 = 31.5
• COc1ccccc1N(CC(=O)NCc1ccccc1)S(C)(=O)=O = 6.6
• COCCN1C(=O)C(=O)/C(=C(/O)c2ccc(OC(C)C)cc2)C1c1cccnc1 (stereo unspecified) = -7.9

Tell us which inhibition of aggregation value is on record for COc1ccccc1N1CCN(C(=O)c2ccc(CS(=O)(=O)c3ccccc3OC)o2)CC1
-6.3

Check the records and state inhibition of aggregation for CCOC(=O)c1cc2sccc2n1CC(=O)Nc1ccc(OC)cc1OC
2.8

Please report the measured inhibition of aggregation for N#CCSc1nc2c(c(C3CC=CCC3)c1C#N)CCC2 (stereo unspecified)
-9.6

Could you please provide reported inhibition of aggregation for CCOC(=O)C1CCCN(C(=O)c2ccc(CS(=O)(=O)Cc3ccccc3C)o2)C1 (stereo unspecified) ? Thanks!
19.5

Tell us which inhibition of aggregation value is on record for CN1CCN(C(=O)CN(Cc2ccc(Cl)cc2)S(C)(=O)=O)CC1
6.8

====

Listed below: nuclei count values for each entry.
- Experiment Notes: endothelial E-selectin expression blockers – imaging, HUVEC, immunofluorescence, MLSMR starter and 10KST1 sets, primary screen (AID 487);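 also: 100% = median nuclei count of all wells on the same plate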
- Test Parameters: HUVEC TNFalpha-induced E-selectin immunofluorescence imaging, at 2 µM; measured here: cell number, toxicity
State just the number; it will be interpreted in %.

* Cc1ccc(C)c(NC(=O)C2CCC(C)(C(=O)O)C2(C)C)c1 (stereo unspecified) | 124

Tell us which nuclei count value is on record for COc1ccc(-c2cnc(SCC(=O)Nc3ccc4c(c3)OCO4)n2Cc2ccco2)cc1
110

State its nuclei count for this compound: CCn1c2ccccc2c2cc(NC(=O)CSc3nnc(C4CC4)n3Cc3ccco3)ccc21
94.6

====

- Experiment Notes: inhibitors of TNFa-induced NFkB p65 translocation, primary screen, imaging, HUVEC, MLSMR starter and 10KST1 sets (AID 438);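 also: compound added about 3h40 before a 20 min TNFalpha stimulation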
- Test Parameters: HUVEC TNFa-induced p65 nuclear translocation; measured here: nuclei count (cytotoxicity indicator), at 2.08 µM
The following compounds are shown together with reported cell count values.
Lab note: record just the number, no unit beside it.

• COc1ccccc1-c1c(C)nn2c(C)c(C(C)=O)cnc12 = 768
• COc1ccc(C(=O)N(Cc2ccco2)C(C(=O)NC2CCCC2)c2ccc(O)cc2)cc1OC (stereo not given) = 653
• COc1cc2nc(C3CCC3)n(NC(=O)C3CCCC(OC)C3)c(=O)c2cc1OC (stereo not given) = 609

Given O=C(CSC1=NC(=O)C(Cc2ccccc2)C(=O)N1)NC1CCCCC1 (stereo not given) , respond with its cell count.
605

State its cell count for this compound: COC(=O)CCN1CCC(C(N)=O)CC1
336

Quick one: give measured cell count for CCN1CCN(Cc2ccccc2NC(=O)Nc2ccc(C)cc2)CC1
258

Write down cell count measured for item Cc1cc(C2C(C#N)=C(N)SC(N)=C2C#N)c(C)s1
755

Return reported cell count. Input compound: O=C(NCCN1CCCC1)C1COc2ccccc2O1 (stereo not given)
511

For the compound Cc1cccc(OCC(=O)Nc2ccccc2N2CCN(C(=O)C(C)C)CC2)c1C , give its measured cell count value.
232

// fetch cell count given entry Cc1ccc(S(=O)(=O)NCCc2ccncc2)cc1
560

# return recorded cell count for entry CC1CCN(C(=O)CSc2nnc(-c3cccnc3)n2C2CCCCC2)CC1
463

Given the compound CC1(C)Cc2c(sc3ncnc(N)c23)CO1 , write its reported cell count.
545

// Input: Cc1ccc(-c2nnn(CC(=O)N(CC(=O)NCC3CCCO3)c3ccccc3)n2)o1 (stereo not given) . Output its cell count only.
618

Determine its reported cell count: Cc1ccc(-c2c3c(=O)n(C)c(=O)n(C)c3cn2CCCN2CCOCC2)cc1
761

Return value of cell count for input C=C(C)c1cccc(C(C)(C)NC(=O)Nc2ncccn2)c1 , no commentary.
472

Specify cell count for Cc1ccc(CNC(=O)CSc2n[nH]c(N)n2)cc1 and stop.
498

Specify reported cell count for the compound shown: O=C1CNCc2[nH]c3ccccc3c2N1c1ccccc1
377

Report cell count, nothing else, for this compound: O=C(CN1C(=O)C2CC=C(Cl)CC2C1=O)Nc1ccc(C(=O)O)cc1 (stereo not given)
442

Fill in cell count for record O=C(COC(=O)c1cc(S(=O)(=O)N2CCOCC2)ccc1O)NCC1CCCO1 (stereo not given)
426

Kindly indicate its recorded cell count. Item: COc1ccc(Cl)cc1Nc1nc(C)cc(=O)[nH]1
271

Give cell count for the following compound: CC(O)CN(Cc1cccc(Cl)c1)CC(C)O (stereo not given)
473

Report cell count for O=C(NCCN1CCOCC1)c1ccc2c(c1)N(Cc1ccccc1)C(=O)CS2
773

Give the reported cell count for this compound. O=C(COc1ccccc1)NCCSCc1ccco1
599

Identify measured cell count corresponding to CC(C)[N+]1(C)[C@@H]2CC[C@H]1CC(OC(=O)C(CO)c1ccccc1)C2 (stereo not given in full)
466

Consider the compound O=C(CCCCCn1c(SCc2ccncc2)nc2ccccc2c1=O)NCc1ccco1 and give its recorded cell count.
458

====

- Assayed Target: Voltage-gated potassium channel subunit beta-2 (Rattus norvegicus) (UniProt P62483)
- Experiment Notes: inhibitors of rat Kvbeta2 reductase activity – biochemical, NADPH fluorescence, primary screen (AID 622);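 also: slope of raw intensity against log time taken from 70 to 1610 s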
- Test Parameters: recombinant KvBeta, 4-cyanobenzaldehyde reduction, at 10 µM, stronger effect = higher value
Decide using fluorescence slope: a value greater than or equal to -0.5 is 1, a smaller one is -1.

• O=C(CSc1nc2ccc(Cl)cc2[nH]1)NCc1ccco1 = -1

fluorescence slope >= -0.5 for Cc1ccc(-c2ccc(=O)n(CCC(=O)NCc3ccccn3)n2)cc1 ?
-1

Quick check: does CCOc1ncccc1C(=O)Nc1ccc2c(C)cc(=O)oc2c1 have fluorescence slope greater than or equal to -0.5?
-1

Confirm if fluorescence slope reported for the compound O=C(Cn1ncc2ccccc21)N1CCN(c2cccc(C(F)(F)F)c2)CC1 is -0.5 or above.
1

Please tell me: is the compound Cc1nc(-c2cnn(-c3ccccc3)c2)c2cc(C)oc2n1 at or over -0.5 in terms of fluorescence slope?
-1

Please check the record C/C(CC(O)(/C=N/O)c1ccccc1)=N\O (stereo not given) and state if its fluorescence slope is at or above -0.5.
-1

Check if fluorescence slope >= -0.5 (inclusive). Item: Cc1nc2cc(NC(=O)N3CC4(C)CC3CC(C)(C)C4)ccc2n1C (stereo not given)
1

Could you tell me if the measured fluorescence slope of CC1CCN(C(=S)c2ccccc2O)CC1 reaches -0.5 or more?
-1

Textbook exercise: given the entry Cc1ccc2nc(CSc3nnc(-c4ccco4)n3-c3ccccc3)cc(=O)n2c1 , state whether its fluorescence slope is greater than or equal to -0.5.
-1

Is it the case that CCOC(=O)N1CCN(C(=O)Nc2ccc3oc(C)nc3c2)CC1 has fluorescence slope reaching or exceeding -0.5?
1

Reported fluorescence slope at or above -0.5? NC(=O)c1c(NC(=O)CSc2nnc(-c3ccco3)n2-c2ccccc2)sc2c1CCC2
-1

Is reported fluorescence slope greater than or equal to -0.5 here: O=S(=O)(NCCc1ccccn1)c1cccs1
1

Identify whether the reported fluorescence slope of the following compound is -0.5 or greater: Cc1nc2ccccc2c(=O)n1NC(=O)c1ccc(F)cc1Cl
1

# bool: fluorescence slope of CSc1nnc2c3ccccc3n(Cc3ccccc3)c2n1 >= -0.5
1

====

- Assayed Target: Muscarinic acetylcholine receptor M4 (Homo sapiens)
- Experiment Notes: M4-linked GIRK flux change, two-sided – cell-based, HEK293 M4/GIRK, thallium flux, BTC-AM, M4 allosteric agonist project, primary screen (AID 625);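 also: thallium influx through GIRK channels coupled to M4 in HEK293 cells with BTC-AM dye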
- Test Parameters: at 10 µM, actives lie on both sides
Assay Metric: fluorescence slope
Give only the figure.

For orientation, consider the following solved cases.
* CC(NC(=O)c1ccccc1NC(=O)c1ccco1)C(=O)O (stereo not drawn) | 0.006
* COc1ccc(C)cc1-n1nnnc1SCC(=O)NC(=O)NCc1ccco1 | 0.00596
* O=C(CCCCCn1c(SCc2ccncc2)nc2ccccc2c1=O)NCc1ccco1 | 0.00498
* COc1ccc(/C(O)=C2/C(=O)C(=O)N(CC3CCCO3)C2c2cccc(OC)c2)cc1 (stereo not drawn) | 0.00604
* Cc1ccc(OCC(=O)N2CCN(C(=O)CCC3CCCC3)CC2)cc1 | 0.00663
* O=C(Nc1ccc(S(=O)(=O)NC2CCCC2)cc1)c1cnccn1 | 0.00448
* Cc1ccc(S(=O)(=O)N2CCN(C(=O)CN3C(=O)NC4(CCOc5ccccc54)C3=O)CC2)cc1 (stereo not drawn) | 0.00414
* CCCCC(c1nnnn1C1CCCC1)N1CCN(C2CCCCC2)CC1 (stereo not drawn) | 0.00481
* CCOC(=O)c1ccc(NCC(O)COc2ccccc2)cc1 (stereo not drawn) | 0.00673
* CCOC(=O)Nc1sc(=S)n(C)c1C | 0.00684

Give fluorescence slope for the following compound: O=C(N1CCCCCC1)N1CCN(S(=O)(=O)N2CCCCC2)CC1
0.00553

Determine its reported fluorescence slope: Cc1nnc(N(Cc2ccco2)C(=O)c2cccc(C#N)c2)s1
0.00607

Query fluorescence slope for COc1ccccc1CNS(=O)(=O)c1cccc(S(=O)(=O)N2CCOCC2)c1
0.00588

Supply reported fluorescence slope belonging to this compound: COc1cccc2cc(C(=O)N3CCc4ccccc43)c(=O)oc12
0.00512
